Hey, just so you know, these numbers are from patent US10532985B2.

Molecular target: human TrkA (Homo sapiens, UniProt P04629)
Construct: purchased Lifetechnologies PV3144
Sequence (P04629 33-796): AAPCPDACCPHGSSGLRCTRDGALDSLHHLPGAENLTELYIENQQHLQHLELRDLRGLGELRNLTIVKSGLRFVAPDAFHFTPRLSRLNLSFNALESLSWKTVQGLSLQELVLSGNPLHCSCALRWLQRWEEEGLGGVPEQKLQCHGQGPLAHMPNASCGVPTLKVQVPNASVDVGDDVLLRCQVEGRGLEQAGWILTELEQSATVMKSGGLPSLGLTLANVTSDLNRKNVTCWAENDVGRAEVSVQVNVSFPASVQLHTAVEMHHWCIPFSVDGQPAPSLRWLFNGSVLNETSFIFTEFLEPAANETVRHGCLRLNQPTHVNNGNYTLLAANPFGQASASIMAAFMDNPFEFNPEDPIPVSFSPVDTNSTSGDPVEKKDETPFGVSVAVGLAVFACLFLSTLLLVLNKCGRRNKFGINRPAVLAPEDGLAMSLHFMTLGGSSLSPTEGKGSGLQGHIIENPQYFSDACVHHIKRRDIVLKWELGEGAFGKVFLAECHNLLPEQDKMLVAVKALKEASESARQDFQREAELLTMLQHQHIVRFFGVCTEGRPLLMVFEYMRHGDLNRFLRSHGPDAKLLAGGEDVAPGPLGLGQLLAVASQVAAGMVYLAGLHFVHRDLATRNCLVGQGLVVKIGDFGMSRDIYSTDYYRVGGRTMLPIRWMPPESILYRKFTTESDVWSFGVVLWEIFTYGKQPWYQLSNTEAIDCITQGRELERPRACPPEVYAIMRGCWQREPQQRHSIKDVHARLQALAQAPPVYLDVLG
Test: Test Example 2-2: Human TrkA Inhibition Assay
Assay type: biochemical
Settings: human TrkA inhibition, class symbols A/B/C, read-out: IC50_nM
Metric: IC50

Query COCC[C@@H]1C[C@@H](NC(=O)Nc2c(C)c(-c3cnn(C)c3)nn2-c2ccccc2)[C@H](c2ccc(F)c(F)c2)N1C yields IC50 of < 100 nM

Query COCCC1C[C@@H](NC(=O)Nc2cc(-c3ccc(C)nc3)nn2C)[C@H](c2ccccc2)C1 (stereo partly drawn) yields IC50 of 100 to 1000 nM

Query COCCC1C[C@@H](NC(=O)Nc2c(C)c(-c3cnn(C)c3)nn2-c2ccccc2)[C@H](c2ccc(F)c(F)c2)C1 (stereo partly drawn) yields IC50 of < 100 nM

Query COCC=C1C[C@@H](NC(=O)Nc2c(C)c(-c3cnn(C)c3)nn2-c2ccccc2)[C@H](c2ccccc2)C1 yields IC50 of < 100 nM

Query COCC[C@@H]1C[C@@H](NC(=O)Nc2c(C)c(-c3ccc(C(=O)O)cc3)nn2-c2ccccc2)[C@H](c2ccc(F)c(F)c2)N1C yields IC50 of < 100 nM

Query COCC[C@@H]1C[C@@H](NC(=O)Nc2c(C)c(C3=CCNCC3)nn2-c2ccccc2)[C@H](c2ccccc2)C1 yields IC50 of < 100 nM

----------
Biological target: human TrkA (Homo sapiens)
Construct: purchased Lifetechnologies PV3144
Assay: Test Example 2-2: Human TrkA Inhibition Assay
Type: biochemical
Settings: human TrkA inhibition, class symbols A/B/C, read-out: IC50_nM
pIC50: −log10 of the molar value.
Measured pIC50 of individual entries

Let me check: Cc1c(-c2cnn(C)c2)nn(-c2ccccc2)c1NC(=O)N[C@@H]1CC(C)C[C@H]1c1ccc(F)c(F)c1 (stereo partly drawn) , system human TrkA (Homo sapiens), measured pIC50 is 6.00 to 7.00

Let me check: COCCN1C[C@@H](NC(=O)Nc2c(C)c(-c3cnn(C)c3)nn2-c2ccccc2)[C@H](c2ccnc(C3=NC(=O)CS3)c2)C1 (racemic) , system human TrkA (Homo sapiens), measured pIC50 is < 6.00

Let me check: COCC[C@@H]1C[C@@H](NC(=O)Nc2c(C)c(-c3ccnc(C)c3)nn2-c2ccccc2)[C@H](c2ccc(F)c(F)c2)N1C , system human TrkA (Homo sapiens), measured pIC50 is > 7.00

Let me check: COCCC1C[C@@H](NC(=O)Nc2cc(C(F)(F)F)cnc2-c2ccccc2)[C@H](c2ccccc2)C1 (relative stereo) , system human TrkA (Homo sapiens), measured pIC50 is > 7.00

Let me check: COCC[C@@H]1C[C@@H](NC(=O)Nc2c(C)c(-c3cnn(C)c3)nn2-c2ccccc2)[C@H](c2ccccc2)[C@H]1CO , system human TrkA (Homo sapiens), measured pIC50 is 6.00 to 7.00

Shifting focus to the compound that follows.
Let me check: COCC(C(=O)OC)[C@@H]1C[C@@H](NC(=O)Nc2c(C)c(-c3cnn(C)c3)nn2-c2ccccc2)[C@H](c2ccccc2)C1 (mixture of isomers) [Compound I-243] , system human TrkA (Homo sapiens), measured pIC50 is < 6.00

----------
Target: human TrkA (Homo sapiens, UniProt P04629)
Construct: purchased Lifetechnologies PV3144
Experiment: Test Example 2: Human TrkA Inhibition Assay
Format: biochemical
Details: human TrkA inhibition, Test Example 2; class symbols A/B/C; read-out: IC50_nM
Protocol: After the incubation for 90 min at room temperature, ten μL of termination buffer (100 mmol/L HEPES, 40 mmol/L ethylenediaminetetraacetic acid (EDTA), 10 mmol/L magnesium chloride, 0.003 vol % Brij-35, 0.004 vol % Tween20, 1 mmol/L DTT and 0.16 vol % Coating Reagent 3) was added in each well to stop the enzyme reaction. […] The inhibitory effect of each compound on TrkA phosphorylation was calculated by the following formula-2. […]
Measured IC50 of individual entries

Some solved cases for reference:
Query COCCN1C[C@@H](NC(=O)Nc2c(C)c(-c3cnn(C)c3)nn2-c2ccccc2)[C@H](c2cccc(-c3ccc(C#N)s3)c2)C1 (racemic) [Compound I-53] yields IC50 of > 1000 nM

Query Cc1c(-c2cnn(C)c2)nn(-c2ccccc2)c1NC(=O)N[C@@H]1C[N+](C)(C)C[C@H]1c1ccc(F)c(F)c1 [Compound I-25] yields IC50 of > 1000 nM

Query COCCC1C[C@H](NC(=O)Nc2c(C)c(-c3cnn(C)c3)nn2-c2ccccc2)[C@@H](c2ccccc2)C1 (stereo partly drawn) [Compound I-123] yields IC50 of 100 to 1000 nM

Further cases:
Query COCCN1C[C@@H](NC(=O)Nc2c(C)c(-c3cnn(C)c3)nn2-c2ccccc2)[C@H](c2cccc(-c3cccc(C(=O)OC)c3)c2)C1 (racemic) [Compound I-57] yields IC50 of 100 to 1000 nM

Query Cc1c(-c2cnn(C)c2)nn(-c2ccccc2)c1NC(=O)N[C@@H]1CN(C(=O)OC(C)(C)C)C[C@H]1c1ccccc1 (racemic) [Compound I-5] yields IC50 of > 1000 nM

Query CCC1C[C@@H](NC(=O)Nc2c(C)c(-c3cnn(C)c3)nn2-c2ccccc2)[C@H](c2ccccc2)C1 (stereo partly drawn) [Compound I-103] yields IC50 of < 100 nM
